Attribution: ChEMBL document CHEMBL3351255

- EXPERIMENT: Toxicity in mouse B16F10 cells assessed as cell viability at 25.5 uM incubated for 72 hrs by BCA protein assay
- Type: cell-based
- ASSAY_SETUP: read-out: Activity
ENDPOINT: viability at 72 h, 25.5 µM (%)
Please respond with the number in % and leave the unit unwritten.

Q: Name the recorded viability at 72 h, 25.5 µM for C=CC/C=C\C/C=C\CCCCCCCc1cc(O)cc(O)c1 .
A: 102
